System: Enterococcus sp.
PROTOCOL SUMMARY: in vitro antibacterial evaluation, MIC by broth dilution
Type: cell-based
TEST CONDITIONS: broth dilution, inoculum 5×10^5 CFU/mL, 18 hours at 35° C.; strain GC 4558
For each entry below, report its MIC Enterococcus avium (GC 4558) value.
Report only the number, with the unit µg/mL understood.

# return recorded MIC Enterococcus avium (GC 4558) for input CC(c1ccccc1)C1NC(=O)CNC(=O)C(CO)NC(=O)C(C(O)C2CNC(=N)N2C2OC(CO)C(O)C(O)C2O)NC(=O)C(C(O)C2CNC(=N)N2)NC(=O)C(Cc2ccc(OC3OC(CO)C(OC4OC5COC(c6ccc(-c7cccs7)cc6)OC5C(O)C4O)C(O)C3O)cc2)NC1=O (centres unmarked)
4

# return recorded MIC Enterococcus avium (GC 4558) for input CC(c1ccccc1)C1NC(=O)CNC(=O)C(CO)NC(=O)C(C(O)C2CNC(=N)N2C2OC(CO)C(O)C(O)C2O)NC(=O)C(C(O)C2CNC(=N)N2)NC(=O)C(Cc2ccc(OC3OC(CO)C(OC4OC5COC(c6ccccc6)OC5C(O)C4O)C(O)C3O)c(I)c2)NC1=O (centres unmarked)
32

* * *

Test system: Streptococcus sp.
PROTOCOL SUMMARY: in vitro antibacterial evaluation, MIC by broth dilution
Format: cell-based
TEST CONDITIONS: strain GC 4563; broth dilution, 18 hours at 35° C.
For each entry below, report its MIC Streptococcus pyogenes (GC 4563) value.
Report only the number, with the unit µg/mL understood.

# return recorded MIC Streptococcus pyogenes (GC 4563) for input CC(c1ccccc1)C1NC(=O)CNC(=O)C(CO)NC(=O)C(C(O)C2CNC(=N)N2C2OC(CO)C(O)C(O)C2O)NC(=O)C(C(O)C2CNC(=N)N2)NC(=O)C(Cc2ccc(OC3OC(CO)C(OC4OC5COC(c6ccc(-c7ccc(Cl)cc7)cc6)OC5C(O)C4O)C(O)C3O)cc2)NC1=O (stereo not shown)
0.12

# return recorded MIC Streptococcus pyogenes (GC 4563) for input CCOc1cc(C2OCC3OC(OC4C(CO)OC(Oc5ccc(CC6NC(=O)C(C(C)c7ccccc7)NC(=O)CNC(=O)C(CO)NC(=O)C(C(O)C7CNC(=N)N7C7OC(CO)C(O)C(O)C7O)NC(=O)C(C(O)C7CNC(=N)N7)NC6=O)cc5)C(O)C4O)C(O)C(O)C3O2)ccc1[N+](=O)[O-] (stereo not shown)
1

# return recorded MIC Streptococcus pyogenes (GC 4563) for input CC(C)=CCOc1cccc(C2OCC3OC(OC4C(CO)OC(Oc5ccc(CC6NC(=O)C(C(C)c7ccccc7)NC(=O)CNC(=O)C(CO)NC(=O)C(C(O)C7CNC(=N)N7C7OC(CO)C(O)C(O)C7O)NC(=O)C(C(O)C7CNC(=N)N7)NC6=O)cc5)C(O)C4O)C(O)C(O)C3O2)c1 (stereo not shown)
0.12

* * *

For each entry below, report its MIC Staphylococcus aureus (ATCC 29213) value.
Tested on: Staphylococcus sp.
PROTOCOL SUMMARY: in vitro antibacterial evaluation, MIC by broth dilution
Type: cell-based
TEST CONDITIONS: broth dilution, 18 hours at 35° C.; strain ATCC 29213

# return recorded MIC Staphylococcus aureus (ATCC 29213) for input CC(c1ccccc1)C1NC(=O)CNC(=O)C(CO)NC(=O)C(CC2CNC(=N)N2C2OC(CO)C(O)C(O)C2O)NC(=O)C(CC2CNC(=N)N2)NC(=O)C(Cc2ccc(OC3OC(CO)C(OC4OC(CO)C(OCc5ccc(OCc6ccccc6)cc5)C(O)C4O)C(O)C3O)cc2)NC1=O (centres unmarked) [Example 246a]
2 µg/mL

# return recorded MIC Staphylococcus aureus (ATCC 29213) for input CC(c1ccccc1)C1NC(=O)CNC(=O)C(CO)NC(=O)C(CC2CNC(=N)N2C2OC(CO)C(O)C(O)C2O)NC(=O)C(CC2CNC(=N)N2)NC(=O)C(Cc2ccc(OC3OC(CO)C(OC4OC(CO)C(O)C(O)C4OCc4ccc(OCc5ccccc5)cc4)C(O)C3O)cc2)NC1=O (centres unmarked) [Example 246c]
>128 µg/mL
